test system: UACC-62 melanoma; assay: NCI tumour cell line growth inhibition, 48 h
Where a SMILES comes first, the peptide text is derived from it. [ ]: non-standard residue; d: D form. The star is where a group is joined. ξ: configuration not given here. NMeF = CN[C@@H](Cc1ccccc1)C(=O)O; NMeV = CN[C@H](C(=O)O)C(C)C; ξNMeN = CNC(CC(N)=O)C(=O)O; NMeA = CN[C@@H](C)C(=O)O; ξNMeV = CNC(C(=O)O)C(C)C; Boc = CC(C)(C)OC(=O)*
Reported TGI values follow for various molecules

Worked set:
Molecule	Experimental Target	TGI
CCOC(CNc1nn2c(C)nnc2s1)OCC	UACC-62 melanoma	> 100 µM
Cn1cnc([N+](=O)[O-])c1Sc1nc2ccccc2s1	UACC-62 melanoma	25.7 µM
COc1ccc(/C=C2\COc3ccc(O)c(O)c3C2=O)cc1	UACC-62 melanoma	2.41 µM
Cc1[nH]n(-c2ncc(C(=O)O)c(=O)[nH]2)c(=O)c1CCO	UACC-62 melanoma	> 100 µM
COc1cc([C@@H]2c3cc4c(cc3[C@@H](OC3OC5CO[C@@H](c6cccs6)OC5C(O)C3O)[C@H]3COC(=O)[C@H]23)OCO4)cc(OC)c1O (some centres undefined)	UACC-62 melanoma	2.71 µM
COC(=O)[C@H](C)N(C)C(=O)C(CC(N)=O)N(C)C(=O)[C@H](Cc1ccccc1)N(C)C(=O)[C@@H]1CCCN1C(=O)[C@H](C(C)C)N(C)C(=O)C(C(C)C)N(C)C(=O)[C@@H](NC(=O)OC(C)(C)C)C(C)C (some centres undefined) (Boc-V[ξNMeV][NMeV]P[NMeF][ξNMeN][NMeA]-OMe)	UACC-62 melanoma	> 75 µM
CC(=O)Oc1cc(C(C)C)c(OCCN(C)C)cc1C	UACC-62 melanoma	> 100 µM
S=c1[nH]nc(-c2ccccc2)n1/N=C\c1ccc(-c2ccc(Cl)cc2)o1	UACC-62 melanoma	> 100 µM

Okay, now this molecule:
Give UACC-62 melanoma TGI for the following molecule: O=C1/C=C/[C@@H](O)[C@@H]2C[C@@H](O)C[C@H]2/C=C/CCC[C@H](CCc2ccccc2)O1
9 µM

###

tested on: DU-145 prostate; experiment: NCI tumour cell line growth inhibition, 48 h
Measure: TGI

Worked set:
>>> print(df.to_string())
                  compound_structure_string  experimental_target  measured_value
0  OCCN(CCO)c1ccc2c(-c3ccccc3)cc(N(CCO)CCO)nc2n1      DU-145 prostate        > 100 µM
1  CC(=O)c1c(Nc2cccc(F)c2)[nH]c2c(Cl)cc(Cl)c(Cl)c2c1=O      DU-145 prostate        > 100 µM
2                  Cc1nc2c(=O)[nH]ncc2[nH]1      DU-145 prostate        > 100 µM
3  CC(C)N(CCCNC(=O)Nc1ccc(C(C)(C)C)cc1)C[C@H]1O[C@@H](n2ccc3c(N)ncnc32)[C@H](O)[C@@H]1O      DU-145 prostate        > 100 µM

Identify the reported TGI for the following entry. Clc1c2ncccc2cc2n[nH]nc12
> 100 µM

Identify the reported TGI for the following entry. COc1cc(/C=C/C(=O)c2ccccc2)cc(OC)c1OC
16.4 µM
